- assay protocol: Hygroscopicity experiment (DVS)
- Assay type: physicochemical
- measurement parameters: Cycle 1, target relative humidity 70.0%, 25° C.
readout kind: % percentage of mass change, Desorption (%)
Numbers only, in %.

These solved cases illustrate the format of a correct answer.
> print(dat)
                                   molecule  test.result
1  Cl.N#Cc1cc2n(CC(=O)Nc3ccc(F)cn3)c(=O)c3ccc(C(F)(F)F)nc3n2n1 [Hydrochloride (crystal form A)]        7.898
2  CCS(=O)(=O)O.N#Cc1cc2n(CC(=O)Nc3ccc(F)cn3)c(=O)c3ccc(C(F)(F)F)nc3n2n1 [Ethanesulfonate (crystal form A)]        0.442
3  CS(=O)(=O)O.N#Cc1cc2n(CC(=O)Nc3ccc(F)cn3)c(=O)c3ccc(C(F)(F)F)nc3n2n1 [Methanesulfonate (crystal form A)]        0.395
4  N#Cc1cc2n(CC(=O)Nc3ccc(F)cn3)c(=O)c3ccc(C(F)(F)F)nc3n2n1.O=S(=O)(O)O [Sulfate (crystal form B)]        0.652

Inquiry: Hello, please tell me recorded % percentage of mass change, Desorption for this one: Br.N#Cc1cc2n(CC(=O)Nc3ccc(F)cn3)c(=O)c3ccc(C(F)(F)F)nc3n2n1 [Hydrobromide (crystal form B)]
Reply text: 4.532

Numbers sourced from patent US20240376108A1.
